Measured cell viability (log2) by item
system: A673/TR/shEF; experiment: cell viability (LOESS-normalised, relative to median of negative controls) (log2 ratio); higher = more viable cells (less compound effect), active = hit call of the paper (over 3 MAD below the median); settings: 25 µM; library screen: screen2; EWS-FLI1 expression: high (no doxycycline); treatment time: 72 h
About 300 (9.4%) of roughly 3,200 compounds showed activity. The entries come from a sample that favours actives as a whole.
readout type: cell viability (log2)

INSERT INTO results (smiles_notation, study_system, readout_type, numeric_result) VALUES
  ('C[C@H]1C(=O)O[C@@H]2CCN3CC=C(COC(=O)[C@](C)(O)[C@]1(C)O)[C@H]23', 'A673/TR/shEF', 'cell viability (log2)', 0.0406),
  ('C=C(C)[C@H]1Cc2c(ccc3c2O[C@@H]2COc4cc(OC)c(OC)cc4[C@@H]2C3=O)O1', 'A673/TR/shEF', 'cell viability (log2)', -3.79),
  ('O=C1C=CC(=O)c2c(O)cccc21', 'A673/TR/shEF', 'cell viability (log2)', -0.0924),
  ('COc1cc2c(c(OC)c1OC)-c1ccc(OC)c(=O)cc1[C@@H](NC(C)=O)CC2', 'A673/TR/shEF', 'cell viability (log2)', -3.45),
  ('N#C[C@H](O[C@@H]1O[C@H](CO[C@@H]2O[C@H](CO)[C@@H](O)[C@H](O)[C@H]2O)[C@@H](O)[C@H](O)[C@H]1O)c1ccccc1', 'A673/TR/shEF', 'cell viability (log2)', 0.202),
  ('O=C(O)CCCc1ccc(N(CCCl)CCCl)cc1', 'A673/TR/shEF', 'cell viability (log2)', -0.0762),
  ('CC[C@@]1(O)C(=O)OCc2c1cc1n(c2=O)Cc2cc3ccccc3nc2-1', 'A673/TR/shEF', 'cell viability (log2)', -4.09),
  ('NC(=O)c1cc([N+](=O)[O-])cc([N+](=O)[O-])c1', 'A673/TR/shEF', 'cell viability (log2)', 0.244),
  ('CCOC(=O)NC1=C(N2CC2)C(=O)C(NC(=O)OCC)=C(N2CC2)C1=O', 'A673/TR/shEF', 'cell viability (log2)', -3.5),
  ('COc1cc([C@@H]2c3cc4c(cc3[C@H](O)[C@H]3COC(=O)[C@H]23)OCO4)cc(OC)c1OC', 'A673/TR/shEF', 'cell viability (log2)', -2.9);
